Fibril formation: recorded values
- measurement.target: Transthyretin (Homo sapiens) (UniProt P02766)
- experiment.summary: Transthyretin (TTR) amyloidogenesis inhibition activity by employing an acid-mediated (pH 4.4) WTTTR amyloid fibril formation assay, at 7.2 uM conc.
- Type: functional
Report as a plain number; the unit % is understood.

>>> df
                               smiles  observation_type  unit_descriptor  assay_result
0            Oc1ccc(-c2ccc(F)cc2F)cc1  Fibril formation                %          32.4
1              O=Cc1ccc(-c2ccccc2)cc1  Fibril formation                %          93.5
2  O=C(O)c1ccc(-c2cc(F)c(O)c(F)c2)cc1  Fibril formation                %           3.4
3             Fc1ccc(-c2ccccc2)c(F)c1  Fibril formation                %           100
4               Oc1cccc(-c2ccccc2F)c1  Fibril formation                %          19.5

GET /values?readout=Fibril formation&system=Transthyretin (Homo sapiens) (UniProt P02766)&item= Oc1cccc(-c2ccc(F)cc2F)c1
31.5

One more compound: Oc1ccc(-c2ccc(F)cc2)cc1
53.1

One more compound: OCc1ccccc1-c1ccccc1
81

One more compound: O=Cc1ccc(-c2cc(F)cc(F)c2)cc1
69.6

One more compound: O=C(O)c1cc(-c2cc(F)cc(F)c2)ccc1O
1

One more compound: O=Cc1ccccc1-c1cc(Cl)cc(Cl)c1
7.1

One more compound: O=Cc1cccc(-c2cc(Cl)cc(Cl)c2)c1
4.4

---

- measurement.target: Transthyretin (Homo sapiens) (UniProt P02766)
- experiment.summary: Transthyretin (TTR) amyloidogenesis inhibition activity by employing an acid-mediated (pH 4.4) WTTTR amyloid fibril formation assay, at 3.6 uM conc.
- Format: functional
Fibril formation: recorded values

Solved cases (5 shown):
In [3]: df
Out[3]:
                            smiles                        measurement_target  observation_type  assay_result
0  O=C(O)c1ccc(-c2cc(F)cc(F)c2)cc1  Transthyretin (Homo sapiens) (UniProt P02766)  Fibril formation         35.7%
1      O=C(O)c1cc(-c2ccccc2F)ccc1O  Transthyretin (Homo sapiens) (UniProt P02766)  Fibril formation         38.7%
2    O=C(O)c1cccc(-c2ccc(F)cc2F)c1  Transthyretin (Homo sapiens) (UniProt P02766)  Fibril formation         39.4%
3    O=C(O)c1cccc(-c2c(F)cccc2F)c1  Transthyretin (Homo sapiens) (UniProt P02766)  Fibril formation         35.1%
4    OCc1cccc(-c2cc(Cl)cc(Cl)c2)c1  Transthyretin (Homo sapiens) (UniProt P02766)  Fibril formation           30%

Request the reported Fibril formation associated with O=C(O)c1cccc(-c2cc(F)cc(F)c2)c1
35.7%

One more molecule: O=C(O)c1cccc(-c2ccccc2F)c1
39.4%

One more molecule: OCc1ccccc1-c1cc(Cl)cc(Cl)c1
33.6%

One more molecule: O=C(O)c1cc(-c2cc(F)cc(F)c2)ccc1O
35.5%

One more molecule: O=C(O)c1cc(-c2ccc(F)cc2)ccc1O
38.7%

---

- measurement.target: UniProt P02766
- experiment.summary: Transthyretin (TTR) amyloidogenesis inhibition activity by employing an acid-mediated (pH 4.4) WTTTR amyloid fibril formation assay, at 3.6 uM conc.
- Type: functional
Fibril formation: recorded values
Report as a plain number; the unit % is understood.

In [3]: df
Out[3]:
                                 smiles  measurement_target  unit_descriptor  assay_result
0  O=C(O)c1ccc(-c2cc(Cl)c(O)c(Cl)c2)cc1      UniProt P02766                %          25.8
1        O=C(O)c1cc(-c2ccc(F)cc2F)ccc1O      UniProt P02766                %            37
2          O=Cc1ccccc1-c1cc(Cl)cc(Cl)c1      UniProt P02766                %          34.5
3            O=C(O)c1cc(-c2ccccc2)ccc1O      UniProt P02766                %          47.4
4        O=Cc1cccc(-c2cc(Cl)cc(Cl)c2)c1      UniProt P02766                %          30.6
5             O=C(O)c1ccc(-c2ccccc2)cc1      UniProt P02766                %          51.5
6    O=C(O)c1ccc(-c2cc(F)c(O)c(F)c2)cc1      UniProt P02766                %          31.7
7     O=C(O)c1cccc(-c2cc(Cl)cc(Cl)c2)c1      UniProt P02766                %          32.7
8            Oc1cccc(-c2cc(F)cc(F)c2)c1      UniProt P02766                %          40.9
9    O=C(O)c1cccc(-c2cc(F)c(O)c(F)c2)c1      UniProt P02766                %          38.5

Request the reported Fibril formation associated with OCc1ccc(-c2cc(Cl)cc(Cl)c2)cc1
38.9

One more molecule: O=C(O)c1ccc(-c2cc(Cl)cc(Cl)c2)cc1
41.2

One more molecule: O=C(O)c1ccc(-c2ccc(F)cc2F)cc1
32.6

One more molecule: O=C(O)c1cc(-c2ccc(Cl)cc2Cl)ccc1O
29.9
